Entry source: ChEMBL document CHEMBL1949667

Test: Selectivity ratio of IC50 for human BJeH cells to IC50 for human BJeLR cells
Type: ADME, cell-based
Details: BJeH cells versus BJeLR cells, read-out: Ratio IC50
measurement.name: selectivity ratio

| chem.smiles | endpoint.result |
| --- | --- |
| Cc1onc(C(=O)N2CCN(C(c3ccc(Cl)cc3)c3ccc(Cl)cc3)CC2)c1[N+](=O)[O-] | 4 |

* * *

solubility: recorded values
Test: Aqueous solubility of the compound
Format: physicochemical
Conditions: aqueous; read-out: solubility
measurement.name: solubility (µM)

| compound | relation.symbol | endpoint.result |
| --- | --- | --- |
| COc1ccc(N(C(=O)CCl)C(C(=O)NCS(=O)(=O)c2ccc(C)cc2)c2cccs2)cc1Cl (racemic) | < | 1 |
| COc1ccc(N(C(=O)CCl)C(C(=O)NCCc2ccccc2)c2cccs2)cc1Cl (racemic) | = | 16 |
